Below, each entry is listed with its recorded pKd.
# TGT: T1, recombinant human domain 1-3His6 of the cation-independent mannose-6-phosphate receptor (human, UniProt P11717 41-467)
# T1 construct: Biotinylated (NHS-PEG4-biotin) for BLI; Glycosylated; also called hDom1-3His6; hCI-M6PRD1-D3
# MEASUREMENT_PROTOCOL: BLI exp 1, dissoc pH 6
// pKd: -log10(molar conc.)

These solved cases illustrate the format of a correct answer.
{"BINDER": "anti-CI-M6PR VHH3 (VHH, His6-tagged; made in Pichia pastoris) VHH: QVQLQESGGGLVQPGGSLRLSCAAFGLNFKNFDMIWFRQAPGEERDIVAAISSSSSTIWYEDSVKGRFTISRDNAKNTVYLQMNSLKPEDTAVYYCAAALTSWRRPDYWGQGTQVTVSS", "PARAMETER": "pKd", "MEAS_VALUE": 9.57}
{"BINDER": "anti-CI-M6PR VHH5 (VHH, His6-tagged; made in Pichia pastoris, later also in E. coli WK6) VHH: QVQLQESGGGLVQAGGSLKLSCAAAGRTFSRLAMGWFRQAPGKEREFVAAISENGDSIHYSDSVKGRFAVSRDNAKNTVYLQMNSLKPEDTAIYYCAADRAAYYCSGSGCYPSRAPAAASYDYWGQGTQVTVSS", "PARAMETER": "pKd", "MEAS_VALUE": 10.95}
{"BINDER": "anti-CI-M6PR VHH7 (VHH, His6-tagged (Pichia pastoris)) VHH: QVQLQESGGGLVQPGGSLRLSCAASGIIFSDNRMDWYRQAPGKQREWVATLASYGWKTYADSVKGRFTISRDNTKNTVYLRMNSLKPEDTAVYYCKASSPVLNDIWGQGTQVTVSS", "PARAMETER": "pKd", "MEAS_VALUE": 8.06}
{"BINDER": "anti-CI-M6PR VHH4 (VHH, His6-tagged; made in Pichia pastoris) VHH: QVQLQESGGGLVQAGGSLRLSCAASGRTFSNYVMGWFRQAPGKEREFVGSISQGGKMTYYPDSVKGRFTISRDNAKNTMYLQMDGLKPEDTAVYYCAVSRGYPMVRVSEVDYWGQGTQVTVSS", "PARAMETER": "pKd", "MEAS_VALUE": 8.50}
{"BINDER": "anti-CI-M6PR VHH9 (VHH, His6-tagged; made in Pichia pastoris) VHH: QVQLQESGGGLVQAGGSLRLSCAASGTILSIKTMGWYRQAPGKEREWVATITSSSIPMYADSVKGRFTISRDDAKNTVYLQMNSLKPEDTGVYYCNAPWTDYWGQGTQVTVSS", "PARAMETER": "pKd", "MEAS_VALUE": 9.17}

Kindly consider the entry below.
Task item: Fill in the blank: the reported pKd of anti-CI-M6PR VHH11 (VHH, His6-tagged; made in Pichia pastoris) VHH: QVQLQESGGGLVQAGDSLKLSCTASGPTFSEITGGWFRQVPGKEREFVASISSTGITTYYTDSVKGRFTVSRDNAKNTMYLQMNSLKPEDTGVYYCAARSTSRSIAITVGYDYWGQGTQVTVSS is ____.
Reply: 7.47
